target: rhVEGF165-biotin (Homo sapiens); experiment: VEGF-Binding ELISA (dose-response); conditions: Table 6; **tested after re-synthesised
Sequence (P15692 27-191 isoform P15692-4): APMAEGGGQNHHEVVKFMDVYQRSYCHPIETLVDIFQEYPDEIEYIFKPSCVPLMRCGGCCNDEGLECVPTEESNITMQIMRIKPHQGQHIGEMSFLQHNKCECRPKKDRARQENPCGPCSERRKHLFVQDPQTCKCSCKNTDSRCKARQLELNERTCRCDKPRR
READOUT LABEL: pIC50
By convention, pIC50 is the negative base-10 log of a molar concentration.

{"COMPOUND": "CN(C)c1cccc(C(=O)N2CCC(c3nc(C(=O)Nc4cc(CC(N)=O)ccc4Cl)cs3)CC2)c1 [Compound 1633-02177]", "READOUT NUMBER": 4.74}

Attention now turns to another entry.
Form field: reported pIC50 of NC(=O)c1ccc(Cl)c(NC(=O)c2csc(C3CCN(C(=O)CSc4ncccn4)CC3)n2)c1 [Compound 1633-00382] 5.40

* * *

tested on: human umbilical vein endothelial cells (HUVEC); assay: HUVEC proliferation assay co-stimulated with rhVEGF; type: cell-based; conditions: Homo sapiens, HUVEC, Table 6; *re-test 3 months later
READOUT LABEL: IC50 (µM)
Return type: number; implicit unit µM.

Suppose we examine the molecule NC(=O)c1ccc(Cl)c(NC(=O)c2csc(C3CCN(C(=O)CSc4ncccn4)CC3)n2)c1 ; what IC50 value has been reported? 16

Each recorded value in this set is attributed to patent US20060135501A1.
